Origin of measurements: ChEMBL document CHEMBL3244382

System: P388
Test: Antitumor activity against mouse P388 cells allografted in PS mouse assessed as median survival time at 0.4 ug/kg relative to control
Format: functional
Hi there, I'd appreciate the recorded T/C for every entry that follows.
Report only the number, with the unit % understood.

response.value for COc1cc2cc(c1Cl)NC(=O)/C=C/[C@]1(C)O[C@H]1[C@H](C)[C@@H]1C[C@@](O)(NC(=O)O1)[C@H](OC)/C=C/C=C(\C)C2 (field: T/C) = 100

# T/C of COc1cc2cc(c1Cl)N(C)C(=O)C[C@H](OC(=O)C(C)C)[C@]1(C)O[C@H]1[C@H](C)[C@@H]1C[C@@](O)(NC(=O)O1)[C@H](OC)/C=C/C=C(\C)C2OC(C)=O (some centres undefined) = 133

Documented T/C of CCC(=O)N(C)[C@@H](C)C(=O)O[C@H]1CC(=O)N(C)c2cc(cc(OC)c2Cl)C/C(C)=C/C=C/[C@@H](OC)[C@@]2(O)C[C@H](OC(=O)N2)[C@@H](C)[C@@H]2O[C@@]12C : 137

Record COc1cc2cc(c1Cl)N(C)C(=O)C[C@H](OC(=O)[C@H](C)N(C)C(C)=O)[C@]1(C)O[C@H]1[C@H](C)[C@@H]1C[C@@](O)(NC(=O)O1)[C@H](OC)/C=C/C=C(\C)C2 [MAYTANSINE] . Reported T/C: 125
